Each recorded value in this set is attributed to ChEMBL document CHEMBL1151496.

- Species: Homo sapiens
- assay_protocol: Tested for the inhibition of [125 I] -L 692,884 binding to purified GPIIb/IIIa coated onto yttrium silicate Scintillation proximity assay fluomicrospheres
Consider the following molecules; for each one, report its log10 of ED50.
Note: values are log10 of ED50 expressed in nM.

// recorded log10 of ED50 for O=C(NC[C@H](NS(=O)(=O)c1ccccc1)C(=O)O)c1cc2cc(CCC3CCNCC3)sc2s1 : -1.52

// recorded log10 of ED50 for O=C(O)CCNC(=O)c1cc2cc(CCC3CCNCC3)sc2s1 : 1.68

// recorded log10 of ED50 for O=C(NC[C@H](NS(=O)(=O)c1cccs1)C(=O)O)c1cc2cc(CCC3CCNCC3)sc2s1 : -1.40

// recorded log10 of ED50 for O=C(NC[C@H](NS(=O)(=O)c1cccs1)C(=O)O)c1cc2sc(CCC3CCNCC3)cc2s1 : -1.40

// recorded log10 of ED50 for CCCCS(=O)(=O)N[C@@H](CNC(=O)c1cc2sc(CCC3CCNCC3)cc2s1)C(=O)O : -0.68

// recorded log10 of ED50 for O=C(NCc1ccccc1)N[C@@H](CNC(=O)c1cc2cc(CCC3CCNCC3)sc2s1)C(=O)O : 0.28

Hey, can you go through the list below and give me log10 of ED50 for every item?
1. O=C(NC[C@H](NS(=O)(=O)c1ccc(Cl)cc1)C(=O)O)c1cc2cc(CCC3CCNCC3)sc2s1
2. O=C(NCc1ccccc1)N[C@@H](CNC(=O)c1cc2sc(CCC3CCNCC3)cc2s1)C(=O)O
3. CCCCS(=O)(=O)N[C@@H](CNC(=O)c1cc2cc(CCC3CCNCC3)sc2s1)C(=O)O
4. O=C(NC[C@H](NS(=O)(=O)c1ccccc1)C(=O)O)c1cc2sc(CCC3CCNCC3)cc2s1

Key:
1. -1.05
2. 0.41
3. -0.92
4. -1.10
